Recorded relative viability by entry
- Tested on: LOU-NH91
- test-method-notes: relative viability (nuclei count vs DMSO), 5 days (fraction); higher = more cells survive
- cond: first compound 1 µM
recorded-endpoint: relative viability

[[record]]
compound = "O=c1cc(N2CCOCC2)oc2c(-c3cccc4c3sc3ccccc34)cccc12 + Cc1nc(NC(=O)N2CCC[C@H]2C(N)=O)sc1-c1ccnc(C(C)(C)C(F)(F)F)c1 [Alpelisib] (partner 2 µM)"
val = 0.69

[[record]]
compound = "O=c1cc(N2CCOCC2)oc2c(-c3cccc4c3sc3ccccc34)cccc12 + C[C@@H](Oc1cc(-c2cnn(C3CCNCC3)c2)cnc1N)c1c(Cl)ccc(F)c1Cl [Crizotinib] (partner 1 µM)"
val = 0.698

[[record]]
compound = "CCN(CC)CCCCNc1ncc2cc(-c3cc(OC)cc(OC)c3)c(NC(=O)NC(C)(C)C)nc2n1 + CC1(C)CCC(c2ccc(Cl)cc2)=C(CN2CCN(c3ccc(C(=O)NS(=O)(=O)c4ccc(N[C@H](CCN5CCOCC5)CSc5ccccc5)c(S(=O)(=O)C(F)(F)F)c4)cc3)CC2)C1 [Navitoclax] (partner 0.5 µM)"
val = 0.722

[[record]]
compound = "O=c1cc(N2CCOCC2)oc2c(-c3cccc4c3sc3ccccc34)cccc12 + COc1cc2c(Oc3ccc(NC(=O)C4(C(=O)Nc5ccc(F)cc5)CC4)cc3F)ccnc2cc1OCCCN1CCOCC1 [Foretinib] (partner 0.25 µM)"
val = 0.955

[[record]]
compound = "CCN(CC)CCCCNc1ncc2cc(-c3cc(OC)cc(OC)c3)c(NC(=O)NC(C)(C)C)nc2n1 + CCNC(=O)c1noc(-c2cc(C(C)C)c(O)cc2O)c1-c1ccc(CN2CCOCC2)cc1 [Luminespib] (partner 0.01 µM)"
val = 0.356

[[record]]
compound = "O=c1cc(N2CCOCC2)oc2c(-c3cccc4c3sc3ccccc34)cccc12 + CCNC(=O)c1noc(-c2cc(C(C)C)c(O)cc2O)c1-c1ccc(CN2CCOCC2)cc1 [Luminespib] (partner 0.01 µM)"
val = 0.36

[[record]]
compound = "O=c1cc(N2CCOCC2)oc2c(-c3cccc4c3sc3ccccc34)cccc12 + CS(=O)(=O)N1CCN(Cc2cc3nc(-c4cccc5[nH]ncc45)nc(N4CCOCC4)c3s2)CC1 [Pictilisib] (partner 1 µM)"
val = 0.531


Source listed as the supplement of paper PMC10307832.
